# TEST_DESCRIPTION: Clearance in cynomolgus monkey
# Type: ADME, organism-based, Macaca fascicularis
# CONDITIONS_USED: in vivo
REPORTED_METRIC: clearance (mL/min/kg)
One number for each entry, in mL/min/kg.

Record summary for O=C(O)c1cccc(-c2cccc(NCCNC[C@H](O)c3cccc(Cl)c3)c2)c1 : reported clearance = 5.5

* * *

# STUDY_SYSTEM: Beta-1 adrenergic receptor (Homo sapiens, UniProt P08588)
# Sequence (P08588 whole entry): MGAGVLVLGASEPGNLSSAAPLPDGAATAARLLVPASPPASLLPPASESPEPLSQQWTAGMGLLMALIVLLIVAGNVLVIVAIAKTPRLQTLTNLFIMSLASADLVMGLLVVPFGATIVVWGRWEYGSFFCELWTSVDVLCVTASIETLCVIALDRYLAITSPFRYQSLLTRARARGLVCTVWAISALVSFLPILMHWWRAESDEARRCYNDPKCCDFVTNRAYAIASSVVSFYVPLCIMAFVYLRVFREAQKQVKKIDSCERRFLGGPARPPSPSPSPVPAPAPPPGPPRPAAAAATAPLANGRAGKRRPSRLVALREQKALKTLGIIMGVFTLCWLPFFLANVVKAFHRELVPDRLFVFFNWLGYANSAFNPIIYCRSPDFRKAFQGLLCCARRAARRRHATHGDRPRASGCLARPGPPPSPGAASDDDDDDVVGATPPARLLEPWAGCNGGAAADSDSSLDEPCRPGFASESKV
Classification scheme (EC50): low end: < 800 nM; middle: ≥ 800 nM and < 3000 nM; high end: ≥ 3000 nM

Consider the following illustrative entries.
>  <SMILES_ENTRY>
COC(=O)c1cccc(-c2cccc(NCCNC[C@H](O)c3cccc(Cl)c3)c2)c1

>  <CLASS_NAME>
middle

$$$$
>  <SMILES_ENTRY>
C[C@H](CNc1cccc(-c2cccc(C(=O)O)c2)c1)NC[C@H](O)c1cccc(Cl)c1

>  <CLASS_NAME>
low end

$$$$
>  <SMILES_ENTRY>
O=C(O)c1cncc(-c2cccc(NCCNC[C@H](O)c3cccc(Cl)c3)c2)c1

>  <CLASS_NAME>
high end

$$$$
>  <SMILES_ENTRY>
O=C(O)c1cccc(-c2cccc(NCCNC[C@H](O)c3cccc(Cl)c3)c2)n1

>  <CLASS_NAME>
high end

$$$$
>  <SMILES_ENTRY>
O=C(O)c1ccncc1-c1cccc(NCCNC[C@H](O)c2cccc(Cl)c2)c1

>  <CLASS_NAME>
high end

$$$$

Query :: State the band of C[C@H](CNc1cccc(-c2ccc(C(=O)O)cc2C(=O)O)c1)NC[C@H](O)c1cccc(Cl)c1
Result :: middle

Query :: State the band of O=C(O)c1cccc(-c2cccc(NCCNC[C@H](O)c3cccc(Cl)c3)c2)c1
Result :: high end

Query :: State the band of C[C@H](CNc1cccc(-c2ccccc2C(=O)O)c1)NC[C@H](O)c1cccc(Cl)c1
Result :: low end

These data points were gathered from ChEMBL document CHEMBL1147662.
